- Test system: normal primary NK cells, pool 3 (3 donors) (IL-2 2.5 ng/mL)
- protocol-text: relative IC50 (inflection point of fitted viability curve, relative to fitted max inhibition); higher = less sensitive
- stated-conditions: 72 h
For each entry below, report its relative IC50 value.

See these solved cases before continuing.
molecule: O=P1(NCCCl)OCCCN1CCCl (centres undefined) [Ifosfamide]
tgt: normal primary NK cells, pool 3 (3 donors) (IL-2 2.5 ng/mL)
experimental-value: > 10 µM
--
molecule: CN(N=O)C(=O)N[C@@H](C=O)[C@@H](O)[C@H](O)[C@H](O)CO
tgt: normal primary NK cells, pool 3 (3 donors) (IL-2 2.5 ng/mL)
experimental-value: > 10 µM
--
molecule: Cc1ccc(Nc2nccc(N(C)c3ccc4c(C)n(C)nc4c3)n2)cc1S(N)(=O)=O
tgt: normal primary NK cells, pool 3 (3 donors) (IL-2 2.5 ng/mL)
experimental-value: > 10 µM

Please state recorded relative IC50 (tested on normal primary NK cells, pool 3 (3 donors) (IL-2 2.5 ng/mL)) of `CC(C)(C)c1nc(-c2cccc(NS(=O)(=O)c3c(F)cccc3F)c2F)c(-c2ccnc(N)n2)s1`
> 2.5 µM

Cited source for all entries: the supplement of paper PMC5908809
